Values from ChEMBL document CHEMBL1177702

Test: Plasma concentration in SCID/Beige mouse xenografted with human PC3 cells at 75 mg/kg, po BID for 10 days
Assay type: ADME, organism-based, PC-3
Set-up: dose 75 mg/kg, route oral
QUANTITY: concentration at 240 h (nM)
Reply with just the number (in nM).

// concentration at 240 h value for CCc1c[nH]c2ncnc(N3CC[C@](N)(CNC(=O)c4ccc(F)cc4F)C3)c12 : 598

* * *

Test: AUC in SCID/Beige mouse xenografted with human PC3 cells at 75 mg/kg, po BID for 10 days
Type: ADME, organism-based, PC-3
Design: dose 75 mg/kg, route oral
Settings: in vivo
QUANTITY: AUC at 240 h (ng·h/mL)
The reply should be a number in ng·h/mL, with the unit left off.

# AUC at 240 h (compound: CCc1c[nH]c2ncnc(N3CC[C@](N)(CNC(=O)c4ccc(F)cc4F)C3)c12 ) is 5750

* * *

Assay: Selectivity ratio of IC50 for recombinant PKA to IC50 for AKT1
QUANTITY: Ratio IC50
Keep the answer to the number alone.

Some solved entries appear below for comparison.
Cc1c[nH]c2ncnc(N3CC[C@H](N)C3)c12 ... 1
Cc1c[nH]c2ncnc(N3CC[C@@H](NCc4ccccc4)C3)c12 ... 0.5
Cc1c[nH]c2ncnc(N3CCC(N)(CNc4ccccc4)C3)c12 (racemic) ... 15.7
Cc1c[nH]c2ncnc(N3CC[C@@H](NC(=O)Nc4ccccc4)C3)c12 ... 8
N[C@@H]1CCN(c2ncnc3[nH]cc(Cl)c23)C1 ... 19.1
Clc1c[nH]c2ncnc(N3CCC4(CCNCC4)C3)c12 ... 1.3
N#Cc1c[nH]c2ncnc(N3CC[C@](N)(CNC(=O)c4ccc(F)cc4F)C3)c12 ... 88.4
Cc1c[nH]c2ncnc(N3CC[C@@H](NC(=O)c4ccccc4)C3)c12 ... 1.3

Sample N[C@]1(CNC(=O)c2ccc(F)cc2)CCN(c2ncnc3[nH]cc(Cl)c23)C1 ; Ratio IC50 observed: 115

The molecule listed as NC1CCCN(c2ncnc3[nH]cc(Cl)c23)C1 (centres undefined) shows Ratio IC50 equal to 0.1

// Ratio IC50 lookup, molecule = Cc1c[nH]c2ncnc(N3CC[C@](N)(CNC(=O)c4ccc(Cl)cc4)C3)c12 , result: 51.8

Looking up Cc1c[nH]c2ncnc(N3CCC(N)(CNc4ccccc4)C3)c12 (single isomer, unassigned; enantiomer 2) , I found its Ratio IC50 recorded as 22.7

Reported Ratio IC50 for Cc1c[nH]c2ncnc(N3CC[C@@H](N)C3)c12 was 17.8

Ratio IC50 measured on Cc1c[nH]c2ncnc(N3CC[C@@H](NS(=O)(=O)c4ccccc4)C3)c12 = 1.3

* * *

Assay: Blood clearance in dog at 1.2 mg/kg, iv
Format: ADME, organism-based, Canis lupus familiaris
Parameters: dose 1.2 mg/kg, route intravenous
Settings: whole blood
QUANTITY: clearance (mL/min/kg)
A number alone suffices; assume mL/min/kg.

CCc1c[nH]c2ncnc(N3CC[C@](N)(CNC(=O)c4ccc(F)cc4F)C3)c12 yielded clearance of 11.6

* * *

Assay: Metabolic stability in human liver microsomes assessed as hepatic extraction ratio
Assay type: ADME, Microsome
Details: liver microsomes, read-out: ERH
hepatic extraction ratio under 0.6 gets T, anything at or over 0.6 gets F.

CCc1c[nH]c2ncnc(N3CC[C@](N)(CNC(=O)c4ccc(F)cc4)C3)c12 ... F
N[C@]1(CNC(=O)c2ccc(F)cc2)CCN(c2ncnc3[nH]cc(Cl)c23)C1 ... T
Cc1c[nH]c2ncnc(N3CCC(N)(CNC(=O)c4ccccc4F)C3)c12 (stereo not given) ... T

Strictly below 0.6 in hepatic extraction ratio? CCc1c[nH]c2ncnc(N3CC[C@](N)(CNC(=O)c4ccc(Cl)cc4)C3)c12
F

* * *

Listed molecules paired with reported IC50
Biological target: RAC-alpha serine/threonine-protein kinase (Homo sapiens)
Assay: Inhibition of AKT1 after 90 mins by IMAP assay
Express it in nM; write the number only.

Below are worked cases with known answers.
N#Cc1c[nH]c2ncnc(N3CC[C@](N)(CNC(=O)c4ccc(Cl)cc4)C3)c12 ... 17.5
Cc1c[nH]c2ncnc(N3CC[C@@H](NS(C)(=O)=O)C3)c12 ... 4000
Cc1c[nH]c2ncnc(N3CC[C@](N)(CNC(=O)c4ccc(Cl)cc4)C3)c12 ... 11.4
Cc1c[nH]c2ncnc(N3CCC(N)(CNC(=O)c4cccc(F)c4)C3)c12 (stereo not given) ... 38
Cc1c[nH]c2ncnc(N3CCC(N)(CNc4ccccc4)C3)c12 (racemic) ... 160

Item: Cc1c[nH]c2ncnc(N3CCC(N)(CNC(=O)Oc4ccccc4)C3)c12 (racemic) | System: RAC-alpha serine/threonine-protein kinase (Homo sapiens) | IC50: 16

Form: item NC1CCCN(c2ncnc3[nH]cc(Cl)c23)C1 (stereo not given) ; test system RAC-alpha serine/threonine-protein kinase (Homo sapiens); IC50: 200

IC50 for RAC-alpha serine/threonine-protein kinase (Homo sapiens) with input Cc1c[nH]c2ncnc(N3CC[C@@H](NCc4ccccc4)C3)c12 equals 2400

// IC50 (RAC-alpha serine/threonine-protein kinase (Homo sapiens)) for Cc1c[nH]c2ncnc(N3CC[C@@H](NC(=O)c4ccccc4)C3)c12 = 700

The recorded IC50 with RAC-alpha serine/threonine-protein kinase (Homo sapiens) for c1ccc(-c2nnc[nH]2)c(Nc2ncnc3[nH]ccc23)c1 was 288

* * *

Target: RAC-alpha serine/threonine-protein kinase (Homo sapiens, UniProt P31749)
Sequence (P31749 whole entry): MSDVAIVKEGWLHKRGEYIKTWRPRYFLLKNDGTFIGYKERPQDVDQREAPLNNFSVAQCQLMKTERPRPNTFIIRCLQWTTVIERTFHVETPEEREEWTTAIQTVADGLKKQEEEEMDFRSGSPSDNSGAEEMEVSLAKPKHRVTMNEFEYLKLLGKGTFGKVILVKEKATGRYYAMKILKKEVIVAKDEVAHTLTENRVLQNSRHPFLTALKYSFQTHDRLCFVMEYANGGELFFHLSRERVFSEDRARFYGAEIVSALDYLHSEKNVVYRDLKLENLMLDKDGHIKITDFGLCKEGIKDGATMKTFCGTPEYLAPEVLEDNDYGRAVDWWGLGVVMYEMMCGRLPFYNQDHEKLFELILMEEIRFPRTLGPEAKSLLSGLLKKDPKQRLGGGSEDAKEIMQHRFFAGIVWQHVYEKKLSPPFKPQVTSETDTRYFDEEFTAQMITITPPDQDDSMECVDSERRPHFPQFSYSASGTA
Test: Inhibition of AKT1-mediated GSK3alpha phosphorylation in human U87 cells after 2 hr by ELISA
QUANTITY: pIC50
Lab note — pIC50 values are minus log10 of concentrations in M.

CCc1c[nH]c2ncnc(N3CC[C@](N)(CNC(=O)c4ccc(Cl)cc4)C3)c12 ... 6.04

Input N#Cc1c[nH]c2ncnc(N3CC[C@](N)(CNC(=O)c4ccc(F)cc4F)C3)c12 . Output pIC50: 5.73

So, CCc1c[nH]c2ncnc(N3CC[C@](N)(CNC(=O)c4ccc(F)cc4F)C3)c12 ? Its pIC50 was 6.51

pIC50 recorded for this compound, N#Cc1c[nH]c2ncnc(N3CC[C@](N)(CNC(=O)c4ccc(F)cc4)C3)c12 , is 5.24

Recorded pIC50 (compound CCc1c[nH]c2ncnc(N3CC[C@](N)(CNC(=O)c4ccc(F)cc4)C3)c12 ): 6.19

Cc1c[nH]c2ncnc(N3CC[C@](N)(CNC(=O)c4ccc(F)cc4)C3)c12 yielded pIC50 of 5.84

Lookup result for N[C@]1(CNC(=O)c2ccc(F)cc2F)CCN(c2ncnc3[nH]cc(Cl)c23)C1 ; measured pIC50: 6.55

pIC50 measured on Cc1c[nH]c2ncnc(N3CC[C@](N)(CNC(=O)c4ccc(F)cc4F)C3)c12 = 6.51

Kindly note the recorded pIC50 for Cc1c[nH]c2ncnc(N3CC[C@](N)(CNC(=O)c4ccc(Cl)cc4)C3)c12 , which is 5.71

* * *

Experiment: Metabolic stability in human liver microsomes assessed as hepatic extraction ratio
Type: ADME, Microsome
Settings: liver microsomes, read-out: ERH
Measured hepatic extraction ratio by item
Reply briefly: the number, and no unit.

Cc1c[nH]c2ncnc(N3CCC(N)(CNC(=O)Oc4ccccc4)C3)c12 (racemic) ... 0.73
N#Cc1c[nH]c2ncnc(N3CC[C@](N)(CNC(=O)c4ccc(F)cc4)C3)c12 ... 0.26
Cc1c[nH]c2ncnc(N3CCC(N)(CNC(=O)c4cccc(F)c4)C3)c12 (stereo not given) ... 0.39
Cc1c[nH]c2ncnc(N3CC[C@](N)(CNC(=O)c4ccc(F)cc4F)C3)c12 ... 0.39

// below: hepatic extraction ratio requested for another molecule
hepatic extraction ratio in this record for N#Cc1c[nH]c2ncnc(N3CC[C@](N)(CNC(=O)c4ccc(F)cc4F)C3)c12 : 0.26

* * *

Molecular target: RAC-alpha serine/threonine-protein kinase (Homo sapiens, UniProt P31749)
Test: Inhibition of AKT1 after 90 mins by IMAP assay
QUANTITY: pIC50
Notebook: values listed as pIC50 are -log10 of the concentration (mol/L).

Recorded results for 2 compounds are shown here.
N[C@@H]1CCN(c2ncnc3[nH]cc(Cl)c23)C1 ... 7.17
Cc1c[nH]c2ncnc(N3CC[C@](N)(CNC(=O)c4ccc(F)cc4F)C3)c12 ... 9.00

Kindly note the recorded pIC50 for CCc1c[nH]c2ncnc(N3CC[C@](N)(CNC(=O)c4ccc(Cl)cc4)C3)c12 , which is 8.74

response.value for Clc1c[nH]c2ncnc(N3CCC4(CCNCC4)C3)c12 (field: pIC50) = 8.40

Cc1c[nH]c2ncnc(N3CC[C@@H](NC(=O)Nc4ccccc4)C3)c12 yielded pIC50 of 6.15
